Exercise: state measured EC50 for each of the compounds provided.
Measured On: UniProt P23458
Sequence (P23458 850-1154): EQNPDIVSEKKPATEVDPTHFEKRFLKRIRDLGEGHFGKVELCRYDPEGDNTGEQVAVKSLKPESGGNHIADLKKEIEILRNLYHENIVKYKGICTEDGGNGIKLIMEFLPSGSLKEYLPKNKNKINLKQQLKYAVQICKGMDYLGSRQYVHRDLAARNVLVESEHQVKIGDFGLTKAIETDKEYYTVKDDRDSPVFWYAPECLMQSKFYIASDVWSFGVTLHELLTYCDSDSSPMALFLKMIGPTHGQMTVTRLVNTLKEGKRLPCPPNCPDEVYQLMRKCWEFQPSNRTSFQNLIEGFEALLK
Experimental Protocol: JAK kinase assay (HTRF), JAK1
Settings: catalytic domain, ATP at Km (7 μM)
Please give the number followed by its unit.

Reference set, count: 5
N#Cc1ccc([C@@H](CO)NC(=O)[C@H]2CCN(c3ncnc4[nH]ccc34)CC23CC3)nc1 ... 10.3 nM
O=C(NC[C@H](O)c1ccccc1)C1CCN(c2ncnc3[nH]ccc23)CC12CC2 (stereo partly shown) ... 9.9 nM
N#Cc1ccc(CNC(=O)C2CCN(c3ncnc4[nH]ccc34)CC23CC3)nc1 (stereo not shown) ... 6.2 nM
N#CCC1(COC(=O)[C@H]2CCN(c3ncnc4[nH]ccc34)CC23CC3)CC1 ... 3.1 nM
O=C(N[C@@H](CO)Cc1ccccc1)C1CCN(c2ncnc3[nH]ccc23)CC12CC2 (stereo partly shown) ... 38 nM

Report EC50 for every entry below.
1. O=C(N[C@H](CO)C(=O)OCC1(CO)CCC1)[C@H]1CCN(c2ncnc3[nH]ccc23)CC12CC2
2. C[C@H](NC(=O)C1CCN(c2ncnc3[nH]ccc23)CC12CC2)c1cccc(C#N)c1 (stereo partly shown)
3. COc1cc(F)ccc1[C@H](CO)NC(=O)[C@H]1CCN(c2ncnc3[nH]ccc23)CC12CC2
4. COc1cc(C#N)ccc1[C@H](CO)NC(=O)[C@H]1CCN(c2ncnc3[nH]ccc23)CC12CC2
5. N#Cc1ccc([C@H](CO)NC(=O)[C@H]2CCN(c3ncnc4[nH]ccc34)CC23CC3)cc1

Result:
8.8 nM
7.1 nM
10.5 nM
13.7 nM
1 nM

Report EC50 for every entry below.
1. C[C@@H](NC(=O)C1CCN(c2ncnc3[nH]ccc23)CC12CC2)c1cccc(F)c1 (stereo partly shown)
2. C[C@H](NC(=O)[C@H]1CCN(c2ncnc3[nH]ccc23)CC12CC2)[C@@H](O)c1ccc(F)c(F)c1

Result:
["32.8 nM", "0.4 nM"]

Report EC50 for every entry below.
1. C[C@@H](NC(=O)C1CCN(c2ncnc3[nH]ccc23)CC12CC2)c1ccc(F)c(C#N)c1 (stereo partly shown)
2. O=C(NCCc1ccccc1)C1CCN(c2ncnc3[nH]ccc23)CC12CC2 (stereo not shown)
3. C[C@](CO)(NC(=O)[C@H]1CCN(c2ncnc3[nH]ccc23)CC12CC2)c1ccc(C#N)cn1
4. Cc1cc([C@@H](O)CNC(=O)[C@H]2CCN(c3ncnc4[nH]ccc34)CC23CC3)ncc1F (single isomer, unassigned)

Result:
1: 16.3 nM; 2: 11.7 nM; 3: 6.3 nM; 4: 11.1 nM

###

Measured On: JAK3 (Homo sapiens (Human), UniProt P52333)
Sequence (P52333 822-1111): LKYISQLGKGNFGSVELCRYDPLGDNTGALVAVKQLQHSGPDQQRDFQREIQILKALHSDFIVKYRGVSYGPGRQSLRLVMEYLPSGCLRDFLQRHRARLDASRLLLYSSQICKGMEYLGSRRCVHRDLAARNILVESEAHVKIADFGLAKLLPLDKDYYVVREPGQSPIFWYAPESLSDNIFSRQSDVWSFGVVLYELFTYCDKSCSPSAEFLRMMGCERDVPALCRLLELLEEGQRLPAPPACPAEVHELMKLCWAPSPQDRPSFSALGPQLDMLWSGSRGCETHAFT
Experimental Protocol: JAK kinase assay (HTRF), JAK3
Assay type: biochemical
Settings: catalytic domain, ATP at Km (2 μM)
Exercise: state measured pEC50 for each of the compounds provided.
Numbers only, as −log10 of the molar value.

O=C(NC[C@H](O)c1ccc(F)cn1)[C@H]1CCN(c2ncnc3[nH]ccc23)CC12CC2 [Example 46] ... 7.62

Report pEC50 for every entry below.
1. O=C(NCCc1ccccc1)C1CCN(c2ncnc3[nH]ccc23)CC12CC2 (stereo not shown) [Example 114]
2. N#Cc1ccc(CNC(=O)[C@H]2CCN(c3ncnc4[nH]ccc34)CC23CC3)cc1F [Example 16]
3. Cc1ccc([C@H](O)CNC(=O)[C@H]2CCN(c3ncnc4[nH]ccc34)CC23CC3)cc1 [Example 64]

Result:
1. 7.19
2. 8.15
3. 7.55

###

Measured On: UniProtKB P29597
Experimental Protocol: JAK kinase assay (HTRF), TYK2
Settings: catalytic domain, ATP at Km (13 μM)
Protocol: Human baculovirus-expressed JAK1, 2, 3 and TYK2 were purchased from Carna Biosciences, Inc. All four purified enzymes contain only the catalytic domain. […] Inhibition of phosphorylation of a synthetic peptide was measured in an HTRF-based assay using the TK substrate-Biotin from the Cisbio HTRFKinEASE TK kit. […] The HTRF signal is read using an Envision plate reader. […]
pEC50: −log10 of the molar value.
Please use MET whenever pEC50 is not below 7, and NOT MET whenever it is.

Recorded results for 2 molecules are shown here.
O=C(N[C@@H](CO)Cc1ccccc1)C1CCN(c2ncnc3[nH]ccc23)CC12CC2 (stereo partly shown) ... NOT MET
O=C(NCC1(CO)CC(F)(F)C1)[C@H]1CCN(c2ncnc3[nH]ccc23)CC12CC2 ... MET

Q: # check: pEC50 of NS(=O)(=O)c1ccc(CNC(=O)C2CCN(c3ncnc4[nH]ccc34)CC23CC3)cc1 (stereo not shown) is greater than or equal to 7
Result: MET

Q: # check: pEC50 of `C[C@H](NC(=O)[C@H]1CCN(c2ncnc3[nH]ccc23)CC12CC2)c1ccc(C#N)cc1F` is greater than or equal to 7
Result: MET

Q: # check: pEC50 of `C[C@H](NC(=O)[C@H]1CCN(c2ncnc3[nH]ccc23)CC12CC2)[C@H](O)c1ccc(F)cc1` is greater than or equal to 7
Result: MET

Q: # check: pEC50 of `O=C(N[C@@H](CO)[C@@H](O)c1ccc(F)cc1)[C@H]1CCN(c2ncnc3[nH]ccc23)CC12CC2` is greater than or equal to 7
Result: MET

Q: # check: pEC50 of C[C@@H](NC(=O)C1CCN(c2ncnc3[nH]ccc23)CC12CC2)c1ccc(C#N)cc1 (stereo partly shown) is greater than or equal to 7
Result: NOT MET

Q: # check: pEC50 of `O=C(N[C@H](CO)C(=O)OCC1CC(F)(F)C1)[C@H]1CCN(c2ncnc3[nH]ccc23)CC12CC2` is greater than or equal to 7
Result: MET

Q: # check: pEC50 of O=C(N[C@@H](CO)c1ccccc1)C1CCN(c2ncnc3[nH]ccc23)CC12CC2 (stereo partly shown) is greater than or equal to 7
Result: NOT MET

Q: # check: pEC50 of `Cc1cc([C@H](O)[C@H](C)NC(=O)[C@H]2CCN(c3ncnc4[nH]ccc34)CC23CC3)ncc1F` is greater than or equal to 7
Result: MET

Q: # check: pEC50 of `C[C@@H](NC(=O)[C@H]1CCN(c2ncnc3[nH]ccc23)CC12CC2)[C@@H](O)c1ccc(C#N)cc1` is greater than or equal to 7
Result: NOT MET

###

Measured On: TYK2 (Homo sapiens (Human))
Sequence (P29597 871-1187): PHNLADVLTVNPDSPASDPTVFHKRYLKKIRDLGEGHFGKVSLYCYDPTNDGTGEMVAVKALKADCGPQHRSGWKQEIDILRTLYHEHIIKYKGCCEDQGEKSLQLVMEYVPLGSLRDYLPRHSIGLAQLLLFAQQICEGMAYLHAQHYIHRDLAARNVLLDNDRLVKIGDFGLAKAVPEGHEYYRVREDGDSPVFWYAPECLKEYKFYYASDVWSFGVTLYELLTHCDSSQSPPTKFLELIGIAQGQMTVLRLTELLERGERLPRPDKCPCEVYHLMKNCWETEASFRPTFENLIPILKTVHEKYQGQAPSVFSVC
Experimental Protocol: JAK kinase assay (HTRF), TYK2
Settings: catalytic domain, ATP at Km (13 μM)
pEC50: −log10 of the molar value.
Please use label 1 whenever pEC50 is not below 7, and label 0 whenever it is.

Recorded results for 3 molecules are shown here.
O=C(NC[C@@H](O)c1ccccc1)[C@H]1CCN(c2ncnc3[nH]ccc23)CC12CC2 ... label 1
O=C(N[C@H](CO)C1CCC1)[C@H]1CCN(c2ncnc3[nH]ccc23)CC12CC2 ... label 0
N#Cc1ccc([C@H](O)CNC(=O)[C@H]2CCN(c3ncnc4[nH]ccc34)CC23CC3)cc1 ... label 1

Q: # check: pEC50 of `COc1cc(C#N)ccc1[C@H](CO)NC(=O)[C@H]1CCN(c2ncnc3[nH]ccc23)CC12CC2` is greater than or equal to 7
Result: label 0

Q: # check: pEC50 of `C[C@H](NC(=O)[C@H]1CCN(c2ncnc3[nH]ccc23)CC12CC2)[C@@H](O)c1ccccc1` is greater than or equal to 7
Result: label 1

Q: # check: pEC50 of O=C(NC[C@@H](O)C1CCCC1)[C@H]1CCN(c2ncnc3[nH]ccc23)CC12CC2 [Example 32] is greater than or equal to 7
Result: label 1

Q: # check: pEC50 of N#CC1CC(CNC(=O)C2CCN(c3ncnc4[nH]ccc34)CC23CC3)C1 (centres unmarked) is greater than or equal to 7
Result: label 0

###

Measured On: JAK3 (Homo sapiens (Human), UniProt P52333)
Experimental Protocol: JAK kinase assay (HTRF), JAK3
Settings: catalytic domain, ATP at Km (2 μM)
In plain terms, low EC50, meaning strictly below 60 nM, gives met, and everything else gives not met.

Recorded results for 5 compounds are shown here.
O=C(NCC1(O)CCCCC1)[C@H]1CCN(c2ncnc3[nH]ccc23)CC12CC2 [Example 74] ... met
C[C@](CO)(NC(=O)[C@H]1CCN(c2ncnc3[nH]ccc23)CC12CC2)c1ccc(C#N)cc1 [Example 27] ... met
O=C(N[C@H](CO)C1CCC1)[C@H]1CCN(c2ncnc3[nH]ccc23)CC12CC2 [Example 147] ... not met
C[C@@H](NC(=O)C1CCN(c2ncnc3[nH]ccc23)CC12CC2)c1ccc(F)c(C#N)c1 (some centres unmarked) [Example 123] ... not met
C[C@@H](NC(=O)[C@H]1CCN(c2ncnc3[nH]ccc23)CC12CC2)[C@@H](O)c1ccc(C#N)cc1 [Example 146] ... not met

Q: # TODO verify EC50 < 60 nM strictly for this compound: O=C(NCC1(CO)CC(F)(F)C1)[C@H]1CCN(c2ncnc3[nH]ccc23)CC12CC2 [Example 23]
Result: met

Q: # TODO verify EC50 < 60 nM strictly for this compound: COc1cc(F)ccc1[C@@H](C)NC(=O)C1CCN(c2ncnc3[nH]ccc23)CC12CC2 (some centres unmarked) [Example 131]
Result: not met

Q: # TODO verify EC50 < 60 nM strictly for this compound: COc1cc([C@@H](C)NC(=O)C2CCN(c3ncnc4[nH]ccc34)CC23CC3)ccc1F (some centres unmarked) [Example 143]
Result: not met
